# System: T1, human MICA allele MICA*008 (human, UniProt Q29983 24-297)
# T1 construct: Expressed on transfected C1R cells; also called MICA*08; C1R-MICA*008
# T1 chain: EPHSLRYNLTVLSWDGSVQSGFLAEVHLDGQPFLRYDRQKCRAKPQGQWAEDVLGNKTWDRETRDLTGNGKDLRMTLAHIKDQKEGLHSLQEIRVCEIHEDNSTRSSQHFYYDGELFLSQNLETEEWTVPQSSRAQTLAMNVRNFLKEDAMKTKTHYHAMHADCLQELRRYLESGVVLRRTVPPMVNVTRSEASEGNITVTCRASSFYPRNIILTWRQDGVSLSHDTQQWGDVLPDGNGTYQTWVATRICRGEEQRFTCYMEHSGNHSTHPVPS
# Test Method Notes: flow cytometry, C1R-MICA*008 transfectant cells
Quick reference: EC50 of the listed items.

Binder	Units	EC50
mAb1 (antibody, V domains shown, Produced in CHO cells as human IgG1 with huCk constant domain; also called anti-MICA mAb1; anti-MICA antibody mAb1) VH: QVQLQESGPGLVKPSETLSLTCTVSGYSITSDYAWNWIRQPPGKGLEWIGFVSYSGTTKYNPSLKSRVTISRDTSKNQFSLKLSSVTAADTAVYYCARGYGFDYWGQGTTVTVSS VL: EIVLTQSPATLSLSPGERATLSCSATSSISSIYFHWYQQKPGQAPRLLIYRTSNLASGIPARFSGSGSGTDYTLTISSLEPEDFAVYYCQQGTTIPFTFGQGTKLEIK	µg/mL	0.0612
mAb9 (antibody, V domains shown, Produced in CHO cells as human IgG1 with huCk constant domain) VH: QVQLQESGPGLVKPSETLSLTCTVSGYSITSDYAWNWIRQPPGKGLEWMGFVSYSGTTKYNPSLKSRVTISRDTSENQFSLKLSSVTAADTAVYYCARGYGFDYWGQGTTVTVSS VL: EIVLTQSPATLSLSPGERATLSCSATSSISSIYFHWYQQKPGQAPRLLIYRTSNLASGIPARFSGSGSGTDYTLTISSLEPEDVAVYYCQQGTTIPFTFGQGTKLEIK	µg/mL	0.0515
mAb5 (antibody, V domains shown, Produced in CHO cells as human IgG1 with huCk constant domain) VH: QVQLQESGPGLVKPSETLSLTCTVSGYSITSDYAWNWIRQPPGKGLEWMGFVSYSGTTKYNPSLKSRVTISRDTSKNQFSLKLSSVTAADTAVYYCARGYGFDYWGQGTTVTVSS VL: EIVLTQSPATLSLSPGERATLSCSATSSISSIYFHWYQQKPGQAPRLLIYRTSNLASGIPARFSGSGSGTSYTLTISSLEPEDFAVYYCQQGTTIPFTFGQGTKLEIK	µg/mL	0.0958
mAb12 (antibody, V domains shown, Produced in CHO cells as human IgG1 with huCk constant domain) VH: QVQLQESGPGLVKPSETLSLTCTVSGYSITSDYAWNWIRQPPGKGLEWMGFVSYSGTTKYNPSLKSRITISRDTSENQFSLKLSSVTAADTAVYYCARGYGFDYWGQGTTVTVSS VL: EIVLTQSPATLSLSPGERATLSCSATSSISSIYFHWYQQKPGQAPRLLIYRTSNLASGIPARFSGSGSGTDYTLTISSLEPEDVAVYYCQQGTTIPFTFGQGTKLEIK	µg/mL	0.0642
mAb2 (antibody, V domains shown, Produced in CHO cells as human IgG1 with huCk constant domain) VH: QVQLQESGPGLVKPSETLSLTCTVSGYSITSDYAWNWIRQPPGKGLEWIGFVSYSGTTKYNPSLKSRVTISRDTSKNQFSLKLSSVTAADTAVYYCARGYGFDYWGQGTTVTVSS VL: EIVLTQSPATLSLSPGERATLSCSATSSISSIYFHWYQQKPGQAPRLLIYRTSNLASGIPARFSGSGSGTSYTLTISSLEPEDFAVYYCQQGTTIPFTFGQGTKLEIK	µg/mL	0.0699
